Reference for the values: the METLIN SMRT retention time set (Domingo-Almenara et al. 2019)

Parameter: RP-LC retention time. Scope: all listed entries.
- assay-method-text: gradient 5% acetonitrile 3 min, to 50% in 2 min, to 85% in 15 min, held 3 min, 100 µL/min
- condition-details: column: Zorbax Extend-C18 2.1 x 50 mm; eluents: water / acetonitrile, 0.1% formic acid
Quick note: give the figure in s, leave out the unit.

[in] # input compound: O=C(NCc1cccc(Br)c1)C1CCN(C(=O)C2Sc3ccccc3NC2=O)CC1 (stereo not given) ; wanted: its RP-LC retention time
[out] 800

[in] Ok, now `N#Cc1ccc(NC(=O)C2CCN(S(=O)(=O)c3cc(C(=O)N4CCCC4)cs3)CC2)cc1`
[out] 792

[in] Moving on to `CCSc1ccccc1C(=O)Nc1cc(C(C)(C)C)nn1CCO`
[out] 781

[in] Now the compound `CCOC(=O)c1cccc(NS(=O)(=O)c2cc(-c3c(C)noc3NC(C)=O)ccc2OC)c1`
[out] 781

[in] Please give the result for `Cc1ccc(CNC(=O)c2cn(-c3ccc(NC(=O)C4CC4)cn3)cn2)cc1C` too.
[out] 818

====

- assay-method-text: gradient 5% acetonitrile 3 min, to 50% in 2 min, to 85% in 15 min, held 3 min, 100 µL/min
- condition-details: column: Zorbax Extend-C18 2.1 x 50 mm; eluents: water / acetonitrile, 0.1% formic acid
reported-endpoint: RP-LC retention time (s)
Answer in s, number only, no unit symbol.

>  <compound>
Cc1ccnc(C(=O)Nc2ccc(Nc3ccc(-n4nc(C)c(C)c4C)nn3)cc2)n1

>  <unit-of-measure>
s

>  <RP-LC retention time>
692

$$$$
>  <compound>
O=C(NC1CCN(c2cc(-c3cccs3)[nH]n2)C1)c1ccccc1Cl (stereo not given)

>  <unit-of-measure>
s

>  <RP-LC retention time>
701

$$$$

[in] What value of measured RP-LC retention time is listed for `COC(=O)c1ccc(NS(=O)(=O)c2cc3n(c2)CCN(C)C3=O)cc1` ?
[out] 682

[in] Try COc1ccc(C2C(=O)N(C3CCCCC3)CC(=O)N2Cc2ccc3c(c2)OCO3)cc1OC (stereo not given) next.
[out] 894

[in] And then COc1ccc(CCN2C(=O)CC(Sc3ccccc3C(=O)O)C2=O)cc1OC (stereo not given) , what is it?
[out] 703

====

Recorded RP-LC retention time by entry
- assay-method-text: gradient 5% acetonitrile 3 min, to 50% in 2 min, to 85% in 15 min, held 3 min, 100 µL/min
- condition-details: column: Zorbax Extend-C18 2.1 x 50 mm; eluents: water / acetonitrile, 0.1% formic acid
Report as: number unit

Worked cases, answers included:
>  <compound>
COc1ccc(OC)c(N2C=C(C#N)S(=O)(=O)c3ccc(F)cc32)c1

>  <reported-endpoint>
RP-LC retention time

>  <test-value>
921 s

$$$$
>  <compound>
CC1CCCCN1S(=O)(=O)c1ccc2c(c1)CCC(=O)N2CC(=O)NC1CCCCC1 (stereo not drawn)

>  <reported-endpoint>
RP-LC retention time

>  <test-value>
921 s

$$$$

# evaluate next
[in] Please report the recorded RP-LC retention time for `CCOC(=O)/C(=N\O)C1=CSC2=NNC(C)(C)N12` .
[out] 907 s

====

- assay-method-text: gradient 5% acetonitrile 3 min, to 50% in 2 min, to 85% in 15 min, held 3 min, 100 µL/min
- condition-details: column: Zorbax Extend-C18 2.1 x 50 mm; eluents: water / acetonitrile, 0.1% formic acid
reported-endpoint: RP-LC retention time (s)
Note: unit s is implicit; provide only the numeric part.

Recorded results for 2 molecules are shown here.
>  <molecule>
Nc1ccccc1NC(=O)CCCCCC(=O)Nc1ccccc1

>  <unit-of-measure>
s

>  <test-value>
683

$$$$
>  <molecule>
CC(C)CCN1CCC(N2CCN(S(=O)(=O)Cc3ccc(F)cc3Cl)CC2)C1=O (stereo not drawn)

>  <unit-of-measure>
s

>  <test-value>
682

$$$$

Alright, here's another molecule for you.
[in] Endpoint output: RP-LC retention time of `Cc1ccsc1C(=O)N1C[C@@H](F)C[C@H]1C(=O)N1CCCCC1` . Value?
[out] 695
